Reported normalized growth values are given for each entry in this list.
Assay: chemical genetic growth profiling, strain panel (AID 1159580);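 note: tested at 20 µM; growth read once vehicle control cultures reached saturation at 30 °C; 1 = growth at the plate median or of vehicle wells; lower values mean less growth of the strain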
Conditions: S. cerevisiae deletion strains, growth OD, locus YDL028C, strain MPS1, active compounds read low
Out of some 5,500 compounds screened, about 2,000 (36%) were called active. Roughly 18% stayed inconclusive and do not appear here. Some of the results follow.

Some solved entries appear below for comparison.
{"columns": ["smi", "endpoint.value"],
 "data": [
  ["NC(=Nc1ccc(F)cc1)SCc1c(Cl)cccc1Cl", "0.983 (inactive)"],
  ["Cc1c2c(=O)[nH]ncc2c(-c2ccccc2)n1-c1ccc([N+](=O)[O-])cc1", "0.987 (inactive)"],
  ["Cc1cc(Cl)ccc1NC(=S)NNC(=S)Nc1ccc(F)cc1", "0.969 (inactive)"],
  ["Cc1nn(Cc2ccc(C(=O)Sc3ccc(C(F)(F)F)cn3)o2)c(C)c1Br", "0.969 (inactive)"],
  ["N#CCC(=O)NNC(=S)Nc1ccc(Cl)c(Cl)c1", "0.986 (inactive)"]
]}

Check the records and state normalized growth for `O=C(NCCSCc1ccco1)Nc1cc(Cl)cc(Cl)c1`
0.966 (inactive)

====

Assay: chemical genetic growth profiling, strain panel (AID 1159580)
Settings: S. cerevisiae deletion strains, growth OD, locus YAL026C, strain drs2, active compounds read low
The whole screen tested about 5,500 compounds, of which about 2,000 (36%) were called active. Not shown: some 18% with an inconclusive outcome. The list shows a part of the results.
endpoint.label: normalized growth
// response body must contain only the number

Known normalized growth results, listed for orientation:
{"columns": ["compound", "normalized growth"],
 "data": [
  ["Cc1ccc2c(Cl)cc(Cl)c(O)c2n1", 1.02],
  ["CCN(CC)CCNC(=O)c1cc(S(C)(=O)=O)ccc1OC", 0.976],
  ["CC1(C)C(=O)C=C[C@@]2(C)C1=C(O)C(=O)[C@]1(C)C2CC[C@@]2(C)[C@H](c3ccoc3)C[C@H]3O[C@]321 (some centres undefined)", 0.893]
]}

Note: attention shifts to another entry.
Supply normalized growth value. Item: `C[n+]1cccc(C(=O)[O-])c1`
0.972

====

Assay: chemical genetic growth profiling, strain panel (AID 1159580)
Conditions: S. cerevisiae deletion strains, growth OD, locus YDR069C, strain doa4, active compounds read low
Out of some 5,500 compounds screened, about 2,000 (36%) were called active. Roughly 18% stayed inconclusive and do not appear here. Some of the results follow.
endpoint.label: normalized growth
# answer = number (no unit)

Guide cases for normalized growth, answers given:
{"columns": ["compound", "normalized growth"],
 "data": [
  ["CC1(C)CCCC2(C)C3C1[C@@H](O)C2(C)C[C@H]3O (stereo partly specified)", 0.992],
  ["CC(C)(C)NC[C@@H](O)COc1nsnc1N1CCOCC1", 1.01],
  ["C=CC(C1=CC(=O)C(OC)=CC1=O)c1ccccc1 (stereo unspecified)", 0.982],
  ["Cc1ccsc1/C=C/C1=NCCCN1C", 0.993],
  ["C=C[C@@H](C1=CC(=O)C(OC)=C(OC)C1=O)c1ccccc1", 0.995]
]}

Note down normalized growth recorded for `COC(C)(C)CCC[C@H](C)C/C=C/C(C)=C/C(=O)OC(C)C`
1.01

====

Assay: chemical genetic growth profiling, strain panel (AID 1159580)
Conditions: S. cerevisiae deletion strains, growth OD, locus YDL101C, strain DUN1
Out of some 5,500 compounds screened, about 2,000 (36%) were called active. Not shown: some 18% with an inconclusive outcome. No stated cut-off is given here; in the data, active means normalized growth mostly below about 0.91 (no sharp cut-off); inconclusive means no clear call, values can overlap the other calls; inactive means mostly above about 0.92. Some of the results follow.
One label from this list, please: Yes for active, No for inactive

{"columns": ["compound", "group"],
 "data": [
  ["NC(=S)N/N=C\\c1ccc(F)c(Cl)c1", "No"],
  ["Clc1cc(Cl)c(Cl)c(-n2cccc2)c1Cl", "Yes"]
]}

// outcome(item) with item = CC(Cc1ccc(O)c(O)c1)C(C)Cc1ccc(O)c(O)c1 (stereo not given)
Yes

Hi, do you know how CCC(C(=O)Nc1ccc(C(F)(F)F)cc1)c1ccccc1 (stereo not given) came out in this test?
No

For `O=C(O)/C=C/C=C/c1ccccc1` , what call appears in the results of this test?
No

# lookup: test call for `NC(=S)N/N=C\c1cc(F)cc(F)c1`
No

Recorded test outcome, item `O=C(O)CF`
No

Look up the recorded call for `CC(=O)c1sc(SCCS(=O)(=O)c2ccc(C)cc2)c2c1CC(C)(C)CC2=O` in this test.
No

Hi, do you know how `O=C(Nc1ccc(N2CCOCC2)cc1)c1ccc(-n2cccn2)cc1` came out in this test?
No

I'd appreciate the recorded outcome for `CSC1=NCN(Cc2ccccc2)CN1` from this test.
No

// param item: Cc1c(O)c(O)cc2c1CC=C1[C@@]2(C)CC[C@@]2(C)C3C[C@](C)(C(=O)O)CC[C@]3(C)CC[C@]12C (stereo not given in full) ; yields the recorded call
No

Assay outcome for `CCCCC1=NC2(CCCC2)C(=O)N1Cc1ccc(-c2ccccc2-c2nn[nH]n2)cc1` : what was it?
No

What outcome does the record of this test show for `S=C(N/N=C\c1ccc(Cl)cc1)N/N=C\c1ccc(Cl)cc1` ?
No

Please state the recorded outcome for this compound: `N#Cc1c(N)sc2c1CCCCC2`
No

Hi, sorry to bother you, what did the test record for OC(CNCc1ccc(Cl)cc1)CO/N=C\C1=C(Cl)c2cc(Cl)ccc2OC1 (stereo not given) ?
No

====

Assay: chemical genetic growth profiling, strain panel (AID 1159580);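 note: tested at 20 µM; growth read once vehicle control cultures reached saturation at 30 °C; 1 = growth at the plate median or of vehicle wells; lower values mean less growth of the strain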
Settings: S. cerevisiae deletion strains, growth OD, locus YMR219W, strain ESC1
About 2,000 (36%) of roughly 5,500 compounds were called active. Inconclusive results (about 18%) are left out. No stated cut-off is given here; in the data, active means normalized growth mostly below about 0.91 (no sharp cut-off); inconclusive means no clear call, values can overlap the other calls; inactive means mostly above about 0.92. The list shows a part of the results.
Outcome (select one): 1.0 = active, 0.0 = inactive

Here are 6 compounds together with their reported answers.
{"columns": ["compound", "group"],
 "data": [
  ["O=[N+]([O-])/C=C/c1ccsc1", 1.0],
  ["CSc1ccc(/C=C/[N+](=O)[O-])cc1", 1.0],
  ["CCOC(=O)N/N=C\\c1cccs1", 0.0],
  ["O=C(N/N=C\\c1cccs1)c1ccccc1CO", 0.0],
  ["CN1CCCC12NCCc1c2[nH]c2ccccc12 (configuration not stated)", 0.0],
  ["NC(=S)N/N=C\\c1cccs1", 1.0]
]}

We now examine a further compound.
Which result was noted for this compound in the test: `COC(=O)c1cc(OC)c(OC)cc1-n1c(C)ccc1C`
0.0

====

Experiment: chemical genetic growth profiling, strain panel (AID 1159580);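 note: tested at 20 µM; growth read once vehicle control cultures reached saturation at 30 °C; 1 = growth at the plate median or of vehicle wells; lower values mean less growth of the strain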
Conditions: S. cerevisiae deletion strains, growth OD, locus YDR392W, strain spt3
Hit rate of the full screen: of about 5,500 compounds, about 2,000 (36%) were called active. Roughly 18% stayed inconclusive and do not appear here. Rule as the data show it: active = normalized growth mostly below about 0.91 (no sharp cut-off); inconclusive = no clear call, values can overlap the other calls; inactive = mostly above about 0.92. Some of the results follow.
The categories you may choose from are 1 (active), -1 (inactive)

{"columns": ["compound", "group"],
 "data": [
  ["CC(C)=CCC[C@](C)(O)C1CC=C(C)CC1 (some centres not stated)", -1],
  ["Nc1ccc(C(=O)NCC(=O)O)cc1", -1],
  ["C=CCC1(C(C)CCC)C(=O)N=C(S)NC1=O (configuration not stated)", -1],
  ["O=C(O[C@@H]1Cc2c(O)cc(O)cc2O[C@@H]1c1cc(O)c(O)c(O)c1-c1c([C@H]2Oc3cc(O)cc(O)c3C[C@H]2O)cc(O)c(O)c1O)c1cc(O)c(O)c(O)c1", -1],
  ["COc1c2c(cc3c1OCO3)CCN(C)C2", -1]
]}

What classification did `Nc1ccc(S(=O)(=O)Nc2ccccn2)cc1` end up with in this test?
-1

Which result was noted for this compound in the test: CCCC1O[C@@H]2CC3C4CCC5=CC(=O)C=CC5(C)C4[C@@H](O)CC3(C)[C@]2(C(=O)CO)O1 (some centres not stated)
-1

Given `Oc1ccc(Cl)c2cccnc12` , state the outcome it received in this test.
1

What call does the record list for `Oc1c(Cl)cc(Cl)c2cccnc12` ?
1

====

Assay: chemical genetic growth profiling, strain panel (AID 1159580);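 note: tested at 20 µM; growth read once vehicle control cultures reached saturation at 30 °C; 1 = growth at the plate median or of vehicle wells; lower values mean less growth of the strain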
Conditions: S. cerevisiae deletion strains, growth OD, locus YDR335W, strain msn5, active compounds read low
Out of some 5,500 compounds screened, about 2,000 (36%) were called active. Another 18% or so got no clear call; they are omitted. The list shows a part of the results.
// values below are reported normalized growth
// print number alone

Worked examples follow.
{"columns": ["compound", "endpoint.value"],
 "data": [
  ["COc1c2c(cc3c1OCO3)CCN(C)C2", 0.998],
  ["CN(C)CCOC(C)(c1ccccc1)c1ccccn1 (stereo unspecified)", 0.985],
  ["CCCCC1=NC2(CCCC2)C(=O)N1Cc1ccc(-c2ccccc2-c2nn[nH]n2)cc1", 1]
]}

Read the entry `C=C(CC)C(=O)c1ccc(OCC(=O)O)c(Cl)c1Cl` and write its reported normalized growth.
1.01

Answer with the recorded normalized growth for the compound listed here: `CCN(CC)CCOc1ccc2c(c1)C(=O)c1cc(OCCN(CC)CC)ccc1-2`
0.989

State its normalized growth: `CN/C(=C\[N+](=O)[O-])NCCSCc1ccc(CN(C)C)o1`
0.998

The measured values listed here are drawn from PubChem BioAssay AID1159580.
